Origin of measurements: paper PMC8772704

Assay: Long-term storage stability of antibiotics in combination with fosfomycin spiked in plasma/CAMHB (−30 °C, −80 °C)
Format: physicochemical
Conditions: plasma, combination with fosfomycin, 4 weeks at -80 °C; HQC (nominal as E15)
Measure: Mean accuracy (%), Table S14
Unit % implied. Number only.

I'd like to know its Mean accuracy (%), Table S14. The compound in question is `C[C@@H]1O[C@@H]1P(=O)(O)O`
97.7

So what does the record say about Mean accuracy (%), Table S14 for `CN(C)c1cc(NC(=O)CNC(C)(C)C)c(O)c2c1C[C@H]1C[C@H]3[C@H](N(C)C)C(O)=C(C(N)=O)C(=O)[C@@]3(O)C(O)=C1C2=O` ?
112.3

Any idea what Mean accuracy (%), Table S14 was measured for `C[C@]1(Cn2ccnn2)[C@H](C(=O)O)N2C(=O)C[C@H]2S1(=O)=O` ?
100.5

====

Assay: Long-term storage stability of antibiotics in combination with fosfomycin spiked in plasma/CAMHB (−30 °C, −80 °C)
Format: physicochemical
Details: plasma, combination with fosfomycin, 4 weeks at -30 °C; MQC (nominal as E14)
Measure: Mean accuracy (%), Table S12
Could you give me the number in %? Just the number is fine.

Examples from the recorded data:
[
  {
    "Compound": "CO/N=C(\\C(=O)N[C@@H]1C(=O)N2C(C(=O)[O-])=C(C[N+]3(C)CCCC3)CS[C@H]12)c1csc(N)n1 [Cefepime, cefepime]",
    "Unit symbol": "%",
    "Mean accuracy (%), Table S12": 97.4
  },
  {
    "Compound": "Cn1c(N)c(NC(=O)NCCN)c[n+]1CC1=C(C(=O)O)N2C(=O)[C@@H](NC(=O)/C(=N\\OC(C)(C)C(=O)[O-])c3nsc(N)n3)[C@H]2SC1",
    "Unit symbol": "%",
    "Mean accuracy (%), Table S12": 98.6
  }
]

Item under review: `NC(=O)[C@@H]1CC[C@@H]2CN1C(=O)N2OS(=O)(=O)O` . Reported Mean accuracy (%), Table S12?
92.6

====

Assay: Long-term storage stability of antibiotics in combination with fosfomycin spiked in plasma/CAMHB (−30 °C, −80 °C)
Type: physicochemical
Details: CAMHB, combination with fosfomycin, 2 weeks at -30 °C; LQC (nominal as E13)
Measure: Mean accuracy (%), Table S15
Value expressed in %; do not type the unit.

Known results for molecules:
[
  {
    "Structure as smiles": "CN(C)c1cc(NC(=O)CNC(C)(C)C)c(O)c2c1C[C@H]1C[C@H]3[C@H](N(C)C)C(O)=C(C(N)=O)C(=O)[C@@]3(O)C(O)=C1C2=O",
    "Mean accuracy (%), Table S15": 98.8
  },
  {
    "Structure as smiles": "CC(C)(O/N=C(\\C(=O)N[C@@H]1C(=O)N2C(C(=O)[O-])=C(C[n+]3ccccc3)CS[C@H]12)c1csc(N)n1)C(=O)O",
    "Mean accuracy (%), Table S15": 99.2
  }
]

Suppose we examine the molecule `NC(=O)[C@@H]1CC[C@@H]2CN1C(=O)N2OS(=O)(=O)O` ; what Mean accuracy (%), Table S15 value has been reported?
93.7

====

// 32 Day Stability (%) lookup, one value per entry
Assay: 32-day stability of stock solutions stored at −80 °C
Assay type: physicochemical
Conditions: stock solution stored at -80 °C; peak area Day 32 vs Day 1
Answer in %, number only, no unit symbol.

[
  {
    "Structure as smiles": "CN(C)c1cc(NC(=O)CNC(C)(C)C)c(O)c2c1C[C@H]1C[C@H]3[C@H](N(C)C)C(O)=C(C(N)=O)C(=O)[C@@]3(O)C(O)=C1C2=O",
    "Measure": "32 Day Stability (%)",
    "Observed value": 102.57
  },
  {
    "Structure as smiles": "C[C@@H](O)[C@H]1C(=O)N2C(C(=O)O)=C(S[C@@H]3CN[C@H](CNS(N)(=O)=O)C3)[C@H](C)[C@H]12",
    "Measure": "32 Day Stability (%)",
    "Observed value": 99.13
  },
  {
    "Structure as smiles": "C[C@@H]1O[C@@H]1P(=O)(O)O",
    "Measure": "32 Day Stability (%)",
    "Observed value": 95.80
  },
  {
    "Structure as smiles": "C[C@]1(Cn2ccnn2)[C@H](C(=O)O)N2C(=O)C[C@H]2S1(=O)=O",
    "Measure": "32 Day Stability (%)",
    "Observed value": 93.04
  },
  {
    "Structure as smiles": "C[C@H]1[C@H](NC(=O)/C(=N\\OC(C)(C)C(=O)O)c2csc(N)n2)C(=O)N1S(=O)(=O)O",
    "Measure": "32 Day Stability (%)",
    "Observed value": 99.75
  }
]

Now consider a different compound.
Look up 32 Day Stability (%) for this compound: `C[C@H]1COc2c(N3CCN(C)CC3)c(F)cc3c(=O)c(C(=O)O)cn1c23`
98.42
